Field: IC50. Provide a value for each of the compounds that follow.
Test system: A549 human lung cancer cell line
Assay: MTT cytotoxicity assay, A549
Assay type: cell-based
Details: Homo sapiens, A549; MTT, 48 h
One number for each entry, in µg/mL.

O=C(/C=C\c1cc(Br)ccc1O)c1ccc(N=Nc2ccc([N+](=O)[O-])cc2Cl)c(O)c1 | 156
O=Cc1ccc(/C=C\C(=O)c2cccc(N=Nc3cccc(Cl)c3Cl)c2O)cc1 | 18
COc1ccccc1/C=C\C(=O)c1ccc(N=Nc2c(O)cccc2O)cc1 | 124
CC[C@@]1(O)C(=O)OCc2c1cc1n(c2=O)Cc2cc3ccccc3nc2-1 [Std, camptothecin, reference compound] | 8.7
O=C(/C=C\c1ccc(Cl)cc1Cl)c1cccc(N=Nc2cccc(Cl)c2Cl)c1O | 140
O=Cc1ccc(/C=C\C(=O)c2ccc(N=Nc3c(O)cccc3O)cc2)cc1 | 171

Identify measured IC50 obtained with A549 human lung cancer cell line for O=C(/C=C\c1ccco1)c1ccc(N=Nc2c(O)cccc2O)cc1 . 109
